Each recorded value in this set is attributed to ChEMBL document CHEMBL1201862.

# System: HCT-116
# experiment notes: NCI tumour cell line growth inhibition, 48 h
Calls of active or inactive are those of the source. Rule as the data show it: active = GI50 up to about 1.1 µM and inactive = higher.
Your response should consist of one outcome taken from label 1 for active, label 0 for inactive

[Q] Which outcome did this test record for the compound COc1ccc(C2=C(Cl)c3cc(OC)c(OC)cc3C2Cl)cc1 (stereo not given) ?
[A] label 0

###

# Tested on: HT-29
# experiment notes: NCI tumour cell line growth inhibition, 48 h
Active and inactive are the calls of the source. Cut-off read from the data, not from the text of the source: active = GI50 up to about 1.1 µM and inactive = higher.
Your response should consist of one outcome taken from active, inactive

Use these answered entries as a reference point.
Cc1c[nH]c2c1C13CC1CN(C(=O)c1cc4cc(NC(=O)c5cc6ccccc6o5)ccc4[nH]1)C3=CC2=O (stereo not given): active
CC(CCC[C@H](C)CO)[C@H]1[C@@H](O)C(O)C2[C@@H]3C[C@@H](O)C4(O)C[C@@H](O)CC[C@]4(C)C3CC[C@@]21C (stereo not given in full): inactive
Cc1ccc(-n2cc(-c3ccc(Cl)cc3)c3c(NN)ncnc32)cc1: inactive
Nc1c(Cl)ncnc1NCC1(CO)CCC1: inactive

As a next step, examine the compound that follows.
[Q] Which outcome did this test record for the compound `CCN(CC)CCSc1nc2c(c(=N)n1-c1ccccc1)c(=S)n(-c1ccccc1)c(=S)n2-c1ccccc1` ?
[A] inactive

###

# Test system: M14
# experiment notes: NCI tumour cell line growth inhibition, 48 h
Calls of active or inactive are those of the source. Rule as the data show it: active = GI50 up to about 1.1 µM and inactive = higher.
measurement kind: GI50

Worked examples follow.
CO/N=C(/C(=O)OC)c1ccccc1COc1ccccc1C(F)(F)F: 26.9 µM (inactive)
CC1C[C@]2(C)C(=O)Nc3ccccc3[C@@H]2Nc2ccccc21 (stereo partly specified): 26.1 µM (inactive)
CN1C(=O)C(C)(C)NS1(=O)=O: > 100 µM (inactive)
Clc1ccc2c(Cl)ncnc2c1I: 49.8 µM (inactive)
O=[N+]([O-])/C(C(Cl)=C(Cl)Cl)=C(/Nc1ccccc1)Sc1ccccc1: 19.8 µM (inactive)

[Q] What measured GI50 goes with Cc1ccccc1-n1c(=O)c2ncn(C3CCCO3)c2n(-c2ccccc2C)c1=S (stereo unspecified) ?
[A] > 100 µM (inactive)

[Q] What measured GI50 goes with `C=CCN1/C(=C2\SC(=S)N(c3ccc(C)cc3)C2=O)Sc2c1ncn(C)c2=O` ?
[A] > 100 µM (inactive)

[Q] What measured GI50 goes with `CCCO[C@@H]1[C@@H](OC(C)=O)[C@@H](OC(C)=O)C(C)(C)/C=C/[C@H](C)C(=O)[C@@]2(OC(C)=O)C[C@@](C)(OC(C)=O)[C@H](OC(C)=O)[C@@H]2[C@H]2OC(=O)CC[C@@]12OC(=O)c1ccccc1` ?
[A] > 25 µM (inactive)

[Q] What measured GI50 goes with `CCOC(=O)C1=C(C)NC(C)=C(C(=O)OCC)C1c1ccc(Cl)cc1` ?
[A] 16.6 µM (inactive)

[Q] What measured GI50 goes with `C/C(N)=[N+](/C)[O-]` ?
[A] > 100 µM (inactive)

[Q] What measured GI50 goes with `CN(C)C(=S)/N=c1\ssc(=S)n1Cc1ccccn1` ?
[A] 2.55 µM (inactive)

###

# Test system: MDA-N
# experiment notes: NCI tumour cell line growth inhibition, 48 h
Activity calls are given as the source filed them. No stated cut-off is given here; in the data, active = GI50 up to about 1.1 µM and inactive = higher.
Your response should consist of one outcome taken from active, inactive

Use these answered entries as a reference point.
C#CCn1c(=O)c(Cl)cn(/C(=C/C(=O)OCC)C(=O)OCC)c1=O: inactive
Nc1c(S(=O)(=O)O)cc(Nc2cccc(S(=O)(=O)/C=C/S(=O)(=O)O)c2)c2c1C(=O)c1ccccc1C2=O: inactive
C[S+]([O-])c1cc(=O)c2ccccc2s1 (stereo unspecified): inactive
CC(C)(C)OC(=O)[C@H]1CCC(=S)N1Cc1ccccc1: inactive
C#C[C@]1(O)CC[C@H]2[C@@H]3CCC4=C/C(=N\OCCN5CCCC5)CC[C@]4(C)[C@H]3CC[C@@]21C: inactive
C=C(C)c1nc(C#N)c(N)o1: inactive
COc1cc(-c2cc(=O)c3c(OC)c(OC)c(OC)cc3o2)c(OC)c(OC)c1OC: inactive
CCOC(=O)C1=CN2C(=N[C@H]3CCCC[C@@H]32)NC1=O: inactive
O/N=N/c1ccc2ccccc2n1: inactive
COc1ccc(Nc2nc(N)c(C(=O)c3ccc(Cl)cc3)s2)cc1: active

As a next step, examine the molecule that follows.
[Q] Which outcome did this test record for the molecule `CC1(C)C=C(S(=O)(=O)c2ccccc2)Oc2ccccc2O1` ?
[A] inactive
